Taken from patent US20240270821A1.

biological target: hGLP-1R (Homo sapiens); assay: Functional cAMP activation in the presence of 0.1% casein (no HSA); format: cell-based; conditions: in the presence of 0.1% casein (no HSA); geometric mean; read-out: Relative cAMP EC50, hGLP-1R;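 note: intracellular cAMP rise after 30 min at 37 °C read by HTRF, normalized between buffer only (0%) and maximal control ligand (100%), four-parameter variable-slope fit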
Sequence (P43220 24-463): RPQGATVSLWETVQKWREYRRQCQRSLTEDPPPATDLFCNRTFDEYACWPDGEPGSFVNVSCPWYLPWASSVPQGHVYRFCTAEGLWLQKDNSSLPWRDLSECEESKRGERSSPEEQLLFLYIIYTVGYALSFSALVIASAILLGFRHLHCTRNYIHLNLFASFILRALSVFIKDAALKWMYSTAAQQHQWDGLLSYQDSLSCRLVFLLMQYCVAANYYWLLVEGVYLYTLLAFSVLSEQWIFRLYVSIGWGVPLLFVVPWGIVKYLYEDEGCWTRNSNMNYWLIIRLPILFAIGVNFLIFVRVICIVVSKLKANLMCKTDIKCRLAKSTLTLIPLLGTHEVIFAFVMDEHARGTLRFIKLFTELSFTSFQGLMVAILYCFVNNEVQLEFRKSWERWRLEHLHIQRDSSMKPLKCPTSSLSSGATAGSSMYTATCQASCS
Starred links: 1 amine or outer side, 2 acyl side, 3 side chain; linkers in the order of their positions; H or OH if unused. Non-standard residues stand in square brackets, D forms with d. Groups on a side chain read outwards from the residue. *: point of attachment. C18 diacid = O=C(O)CCCCCCCCCCCCCCCCC(=O)*; γGlu = O=C(O)[C@H](CCC(=O)[*:2])N[*:1]; αMe4Pal = C[C@](N)(Cc1ccncc1)C(=O)O; 4Pal = N[C@@H](Cc1ccncc1)C(=O)O; αMeL = CC(C)C[C@](C)(N)C(=O)O; Orn = NCCC[C@H](N)C(=O)O; AEEA = NCCOCCOCC(=O)O; Aib = CC(C)(N)C(=O)O
Catalogue of pEC50 readings, one per entry.
FYI, pEC50 means -log10 of a concentration in mol per litre.

In [3]: df
Out[3]:
                                  substance  endpoint  numeric_readout
0  H-Y[Aib]QGTFTSD[4Pal]S[Orn][αMeL]LDKK([γGlu-AEEA-γGlu-C18 diacid])AQ[αMe4Pal]AFIEYLIE[Aib]GPSSGAPPPSGS-NH2 [Example 868]     pEC50             8.24
1  H-Y[Aib]QGTFTSD[4Pal]SQ[αMeL]LDKK([Glu-Glu-γGlu-C18 diacid])AQ[αMe4Pal]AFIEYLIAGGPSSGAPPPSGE-NH2 [Example 1087]     pEC50             8.58

Now look at this entry.
For record H-Y[Aib]QGTFTSDYSQ[αMeL]LDKK([AEEA-γGlu-C18 diacid])AQ[Aib]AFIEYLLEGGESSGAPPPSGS-NH2 [Example 362] the listed pEC50 is 8.75

====

target: hGcgR (Homo sapiens, UniProt P47871); test: Functional cAMP activation in the presence of 0.1% casein (no HSA); assay type: cell-based; settings: in the presence of 0.1% casein (no HSA); geometric mean; read-out: Relative cAMP EC50, hGcgR;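 for Relative cAMP EC50, hGcgR: intracellular cAMP rise after 30 min at 37 °C, read by HTRF against a cAMP standard curve, scaled from buffer only (0%) to maximal control ligand response (100%)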
Sequence (P47871 26-477): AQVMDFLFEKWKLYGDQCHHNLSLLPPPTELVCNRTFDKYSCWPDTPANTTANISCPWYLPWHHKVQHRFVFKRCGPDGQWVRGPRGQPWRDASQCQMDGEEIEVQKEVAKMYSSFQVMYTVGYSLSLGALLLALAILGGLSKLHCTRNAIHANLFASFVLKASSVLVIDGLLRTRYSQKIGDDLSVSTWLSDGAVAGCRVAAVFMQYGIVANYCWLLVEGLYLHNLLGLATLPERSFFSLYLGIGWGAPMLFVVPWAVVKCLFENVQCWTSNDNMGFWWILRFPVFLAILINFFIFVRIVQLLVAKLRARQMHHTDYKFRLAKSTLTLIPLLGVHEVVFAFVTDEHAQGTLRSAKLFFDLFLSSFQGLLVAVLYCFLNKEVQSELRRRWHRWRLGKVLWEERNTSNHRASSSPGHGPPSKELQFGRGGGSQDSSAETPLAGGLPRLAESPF
Starred links: 1 amine or outer side, 2 acyl side, 3 side chain; linkers in the order of their positions; H or OH if unused. Non-standard residues stand in square brackets, D forms with d. Groups on a side chain read outwards from the residue. *: point of attachment. C18 diacid = O=C(O)CCCCCCCCCCCCCCCCC(=O)*; αMePhe(2-F) = C[C@](N)(Cc1ccccc1F)C(=O)O; γGlu = O=C(O)[C@H](CCC(=O)[*:2])N[*:1]; αMe4Pal = C[C@](N)(Cc1ccncc1)C(=O)O; αMeY = C[C@](N)(Cc1ccc(O)cc1)C(=O)O; 4Pal = N[C@@H](Cc1ccncc1)C(=O)O; αMeL = CC(C)C[C@](C)(N)C(=O)O; αMeS = C[C@](N)(CO)C(=O)O; Orn = NCCC[C@H](N)C(=O)O; AEEA = NCCOCCOCC(=O)O; Aib = CC(C)(N)C(=O)O
Binary label based on EC50 with cut-off 9 nM: below gives yes (1), not below gives no (0).

SUBSTANCE	QUALITATIVE LABEL
H-Y[Aib]QGTFTSD[4Pal]SQ[αMeL]LD[Orn]K([γGlu-γGlu-C18 diacid])AQ[αMe4Pal]AFI[dE][αMeY]LIEGGPSSGAPPPSGSEE-NH2 [Example 1044]	no (0)
H-Y[Aib]QGTFTSD[4Pal]S[Orn][αMeL]LDKK([AEEA-γGlu-C18 diacid])AQ[Aib]AFIEYLLE[dA]GPSSGAPPPSG[4Pal]-NH2 [Example 274]	no (0)
H-Y[Aib]QGT[αMePhe(2-F)]TSD[4Pal][αMeS]I[αMeL]LD[Orn]K([AEEA-γGlu-C18 diacid])AQ[αMe4Pal]EFI[dE][αMeY]LVEGGPSSGEPPPESE-NH2 [Example 1157]	yes (1)
H-Y[Aib]QGTFTSD[4Pal]SR[αMeL]LDKK([AEEA-γGlu-C18 diacid])AQ[Aib]AFIEYLIE[Aib]GPSSGAPPPSGS-NH2 [Example 802]	no (0)

# input for lookup
Exam item: Is EC50 of H-Y[Aib]QGTFTSD[4Pal]S[Orn][αMeL]LDKK([γGlu-γGlu-C18 diacid])AQ[αMe4Pal]AFIE[αMeY]LIAGGPSSGAPPPEGS-NH2 [Example 1015] strictly below 9 nM?
Marked response: yes (1)
